System: methicillinsusceptible S. aureus strain ATCC 13709
experiment summary: Challenge strain MIC
Type: cell-based
details: Staphylococcus aureus, ATCC13709, S. aureus ATCC 13709; read-out: Challenge str MIC
Where a name gives a salt, the structure may show the parent alone.
// NB: equality with 0.1 mg/L counts as No; only MIC strictly below is Yes

>>> category("N#Cc1ccccc1SC1=C(C(=O)O)N2C(=O)[C@@H](NC(=O)Cc3ccccc3)[C@H]2SC1 [Cmpd 41]")
"Yes"
>>> category("N=C(N)NCCSCC(=O)N[C@@H]1C(=O)N2C(C(=O)O)=C(Sc3ccccc3CSC(=N)N)CS[C@H]12 [Cmpd 137, trifluoroacetic acid salt]")
"Yes"
>>> category("N#CCC(=O)N[C@@H]1C(=O)N2C(C(=O)O)=C(Sc3ccnn3-c3ccccc3)CS[C@H]12 [Cmpd 88]")
"No"
>>> category("N#CCSCC(=O)N[C@@H]1C(=O)N2C(C(=O)O)=C(Sc3ccnn3-c3ccccc3)CS[C@H]12 [Cmpd 122]")
"No"
>>> category("O=C(CSc1ccccc1)N[C@@H]1C(=O)N2C(C(=O)O)=C(Sc3ccnn3-c3ccccc3)CS[C@H]12 [Cmpd 119]")
"No"

(Q) Is the reported MIC for Nc1nc(/C(=N/OC2CCCC2)C(=O)N[C@@H]2C(=O)N3C(C(=O)O)=C(Sc4ccnn4-c4ccccc4)CS[C@H]23)cs1 [Cmpd 89] strictly below 0.1 mg/L?
(A) No

(Q) Is the reported MIC for N=C(N)SCc1ccc(CC(=O)N[C@@H]2C(=O)N3C(C(=O)O)=C(Sc4ccccc4CSC(=N)N)CS[C@H]23)cc1 [Cmpd 97, trifluoroacetic acid salt] strictly below 0.1 mg/L?
(A) Yes

(Q) Is the reported MIC for O=C(Cc1ccccc1)N[C@@H]1C(=O)N2C(C(=O)O)=C(Sc3cccnc3-n3cccn3)CS[C@H]12 [Cmpd 103] strictly below 0.1 mg/L?
(A) No
